Where do the numbers come from? From patent US20230382904A1.

Here's a batch of molecules along with measured pIC50 for UniProt Q12852.
# reply with the number alone; pIC50 is -log10 of concentration in mol/L

[[record]]
molecule = "COc1cccc(CNC(=O)c2cc(-c3cc(C(=O)NC(C)C)n4nc(N)nc4c3)cs2)c1"
measured_on = "UniProt Q12852"
measure_name = "pIC50"
readout_value = 7.19


So the reported pIC50 for CCOc1cccc(CNC(=O)c2cc(-c3ccn4nc(N)nc4c3)cs2)c1 , on UniProt Q12852, turned out to be 6.52

Query CCN1CCCC(NC(=O)c2cc(-c3ccc4nc(N)nn4c3)cs2)C1 (stereo not shown) on UniProt Q12852; pIC50 returned: 5.70

Field pIC50 (system: UniProt Q12852) for entry C[C@H](NC(=O)c1cc(-c2cc(C(=O)NC3CNC3)c3nc(N)nn3c2)cs1)c1ccc(F)cc1 = 7.33

Known value: UniProt Q12852 pIC50 of the molecule Nc1nc2ccc(-c3csc(C(=O)NCCc4c(F)cccc4Cl)c3)cn2n1 equals 6.28

The observed pIC50 for COc1ccc(CNC(=O)c2cc(-c3ccc4nc(N)nn4c3)cs2)cc1 when tested with UniProt Q12852 stands at 6.00

The reported pIC50 value, UniProt Q12852, for CC(C)NC(=O)c1cc(-c2csc(C(=O)N[C@@H](C)c3ccc(F)cc3)c2)cn2nc(N)nc12 reads 8.06

Sample CC[C@H](C)NC(=O)c1cc(-c2csc(C(=O)NCc3ccccc3)c2)cn2nc(N)nc12 , system: UniProt Q12852. Its pIC50 is 7.96

The measured pIC50 that COc1ccnc(CNC(=O)c2cc(-c3ccc4nc(N)nn4c3)cs2)c1 showed for UniProt Q12852 is 5.80

Reading of pIC50 for CCC(C)c1nnc(-c2cc(-c3csc(C(=O)N[C@@H](CC)c4ccc(F)cc4)c3)cn3nc(N)nc23)s1 (stereo partly shown) with UniProt Q12852: 6.06

The molecule COCCOc1cccc(CNC(=O)c2cc(-c3ccc4nc(N)nn4c3)cs2)c1 , when measured on UniProt Q12852, yielded pIC50 of 5.92

The measured pIC50 that CCC(C)c1nnc(-c2cc(-c3csc(C(=O)N[C@@H](C)c4ccc(F)cc4)c3)cn3nc(N)nc23)s1 (stereo partly shown) showed for UniProt Q12852 is 5.75

Let me check: Nc1nc2c(C(=O)NC3CCNC3)cc(-c3csc(C(=O)NCc4ccccc4)c3)cn2n1 (stereo not shown) , system UniProt Q12852, measured pIC50 is 6.64

Note to self: pIC50 of CC[C@H](NC(=O)c1cc(-c2cc(-c3cnn(CC(F)(F)F)c3)c3nc(N)nn3c2)cs1)c1ccc(F)cc1 with UniProt Q12852 was 6.85

Case Cn1cccc1CNC(=O)c1cc(-c2ccc3nc(N)nn3c2)cs1 , UniProt Q12852, pIC50 recorded as 6.38

Considering C[C@H](NC(=O)c1cc(-c2cc(C(=O)NC3CCNC3)c3nc(N)nn3c2)cs1)c1ccccc1 (single isomer, unassigned) , its pIC50 with UniProt Q12852 was recorded as 7.04

* * *

Assay read-out pIC50; system under study: LZK (Homo sapiens (Human), UniProt O43283).
Sequence (O43283 168-409): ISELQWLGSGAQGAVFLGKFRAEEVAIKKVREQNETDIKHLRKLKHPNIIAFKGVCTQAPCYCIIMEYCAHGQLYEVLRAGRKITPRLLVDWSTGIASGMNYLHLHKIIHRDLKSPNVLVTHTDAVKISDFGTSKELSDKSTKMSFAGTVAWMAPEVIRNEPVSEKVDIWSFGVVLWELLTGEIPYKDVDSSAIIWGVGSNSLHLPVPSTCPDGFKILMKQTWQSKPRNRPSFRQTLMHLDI
pIC50: −log10 of the molar value.

[[record]]
compound = "COc1ccc(CNC(=O)c2cc(-c3ccc4nc(N)nn4c3)cs2)cc1OC [Compound 202]"
measure_name = "pIC50"
readout_value = "< 4.52"

[[record]]
compound = "CCOc1cccc(CNC(=O)c2cc(-c3ccc4nc(N)nn4c3)cs2)c1 [Compound 191]"
measure_name = "pIC50"
readout_value = "< 4.52"

[[record]]
compound = "C[C@H](NC(=O)c1cc(-c2ccc3nc(N)nn3c2)cs1)c1ccc(OC(F)(F)F)cc1 [Compound 356]"
measure_name = "pIC50"
readout_value = "< 4.52"

[[record]]
compound = "Nc1nc2ccc(-c3csc(C(=O)NCCc4c(F)cccc4Cl)c3)cn2n1 [Compound 283]"
measure_name = "pIC50"
readout_value = "< 4.52"


// pIC50 lookup, compound = CC(NC(=O)c1cc(-c2ccc3nc(N)nn3c2)cs1)c1ccc(OC(F)(F)F)cc1 (stereo not shown) [Compound 361] , result: < 4.52

# compound CCNS(=O)(=O)c1cc(-c2csc(C(=O)N[C@@H](C)c3ccc(F)cc3)c2)cn2nc(N)nc12 [Compound 385] ; its pIC50 = < 4.52

Field pIC50 (entry Nc1nc2cc(-c3csc(C(=O)NCc4ccc(F)cc4)c3)cc(C(=O)O)n2n1 [Compound 370] ) reads < 4.52

get_value(item= C[C@@H](NC(=O)c1cc(-c2ccc3nc(N)nn3c2)cs1)c1cccc(Cl)c1 [Compound 267] , readout=pIC50) returns < 4.52

Documented pIC50 of Nc1nc2ccc(-c3csc(C(=O)NC4(c5ccc(F)cc5)CCC4)c3)cn2n1 [Compound 309] : 5.18

Notebook: CC(C)NC(=O)c1cc(-c2csc(C(=O)NC3CCCCC3)c2)cc2nc(N)nn12 [Compound 150] , pIC50 read as 6.31

Record summary for CC[C@@H](NC(=O)c1cc(-c2csc(C(=O)N[C@@H](C)c3ccc(F)cc3)c2)cn2nc(N)nc12)C(F)(F)F [Compound 127] : reported pIC50 = 5.08

Lookup result for CCNC(=O)c1cc(-c2ccc3nc(N)nn3c2)cs1 [Compound 270] ; measured pIC50: < 4.52

The compound listed as Nc1nc2ccc(-c3csc(C(=O)NC4CC4)c3)cn2n1 [Compound 172] shows pIC50 equal to < 4.52

* * *

measured-on: DLK (Homo sapiens (Human))
Classification scheme (IC50): category 1: < 40 nM; category 2: ≥ 40 nM and < 300 nM; category 3: ≥ 300 nM

These recorded examples may help you get a feel for the data.
[[record]]
molecule = "C[C@H](NC(=O)c1cc(-c2cc(C(F)(F)F)c3nc(N)nn3c2)cs1)c1ccccc1"
group_label = "category 2"

[[record]]
molecule = "CC(C)NC(=O)c1cc(-c2csc(C(=O)N[C@H](C)c3ccccc3)c2)cn2nc(N)nc12"
group_label = "category 1"

[[record]]
molecule = "CC[C@H](C)NC(=O)c1cc(-c2csc(C(=O)N[C@@H](COC)c3ccc(F)cc3)c2)cc2nc(N)nn12"
group_label = "category 1"

[[record]]
molecule = "CC1(C)CC(NC(=O)c2cc(-c3ccc4nc(N)nn4c3)cs2)c2ccccc2O1 (centres unmarked)"
group_label = "category 2"

[[record]]
molecule = "Cc1nc(CNC(=O)c2cc(-c3ccc4nc(N)nn4c3)cs2)cs1"
group_label = "category 3"


Which IC50 category applies to C[C@@H](CO)NC(=O)c1cc(-c2csc(C(=O)NC3CCCCC3)c2)cn2nc(N)nc12 here?
category 1

Sort CC(C)NC(=O)c1cc(-c2csc(C(=O)NCc3ccc(F)cc3)c2)cn2nc(N)nc12 into one of the categories.
category 1

* * *

measured-on: DLK (Homo sapiens (Human), UniProt Q12852)
Sequence (Q12852 1-520): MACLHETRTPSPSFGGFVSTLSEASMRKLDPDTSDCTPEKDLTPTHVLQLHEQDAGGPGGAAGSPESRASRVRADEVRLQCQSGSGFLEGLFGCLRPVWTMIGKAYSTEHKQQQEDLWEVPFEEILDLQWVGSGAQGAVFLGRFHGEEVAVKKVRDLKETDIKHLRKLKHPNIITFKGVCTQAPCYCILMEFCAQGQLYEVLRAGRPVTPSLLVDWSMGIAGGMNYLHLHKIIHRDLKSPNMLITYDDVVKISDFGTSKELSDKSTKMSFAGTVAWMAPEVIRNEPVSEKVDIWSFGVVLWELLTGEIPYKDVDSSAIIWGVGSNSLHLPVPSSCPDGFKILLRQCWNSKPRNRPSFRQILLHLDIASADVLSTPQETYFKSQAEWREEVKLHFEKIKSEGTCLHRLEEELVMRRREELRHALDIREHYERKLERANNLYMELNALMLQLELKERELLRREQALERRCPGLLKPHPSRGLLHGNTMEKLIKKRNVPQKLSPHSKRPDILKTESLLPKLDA
pIC50: −log10 of the molar value.
# label = met if pIC50 >= 7 else not met

The following molecules have reported results that may help.
[[record]]
molecule = "CC[C@H](NC(=O)c1cc(-c2cc(C(=O)N[C@H]3CCOC3)n3nc(N)nc3c2)cs1)c1ccc(F)cc1 [Compound 162]"
group_label = "met"

[[record]]
molecule = "COc1cccc(CNC(=O)c2cc(-c3cc(C(=O)NC(C)C)c4ncnn4c3)cs2)c1 [Compound 390]"
group_label = "not met"


Determine whether measured pIC50 meets or exceeds 7 for Nc1nc2ccc(-c3csc(C(=O)Nc4ccccc4)c3)cn2n1 [Compound 259]
not met

hey, is pIC50 for this one >= 7? C[C@H](NC(=O)c1cc(-c2cc(C(=O)NC3CC3)c3nc(N)nn3c2)cs1)c1ccc(F)cc1 [Compound 45]
met

* * *

measured-on: DLK (Homo sapiens (Human), UniProt Q12852)
Classify: y when IC50 is strictly less than 200 nM; n when IC50 is not.

Observe how each entry below is paired with its result.
[[record]]
compound = "C[C@@H](NC(=O)c1cc(-c2ccc3nc(N)nn3c2)cs1)c1ccc(F)cc1"
measured_on = "DLK (Homo sapiens (Human), UniProt Q12852)"
group_label = "n"

[[record]]
compound = "COc1ccc2oc(CNC(=O)c3cc(-c4ccc5nc(N)nn5c4)cs3)nc2c1"
measured_on = "DLK (Homo sapiens (Human), UniProt Q12852)"
group_label = "n"

[[record]]
compound = "CC[C@@H](NC(=O)c1cc(-c2cc(C(=O)NC(C)C)c3nc(N)nn3c2)cs1)c1ccc(F)cc1"
measured_on = "DLK (Homo sapiens (Human), UniProt Q12852)"
group_label = "y"

[[record]]
compound = "CC[C@H](NC(=O)c1cc(-c2cc(C(=O)NC3COC3)c3nc(N)nn3c2)cs1)c1ccccc1"
measured_on = "DLK (Homo sapiens (Human), UniProt Q12852)"
group_label = "y"

[[record]]
compound = "COc1cccc(CNC(=O)c2cc(-c3ccn4nc(N)nc4c3)cs2)c1"
measured_on = "DLK (Homo sapiens (Human), UniProt Q12852)"
group_label = "n"


Here's an entry: COc1cccc(C(C)(C)NC(=O)c2cc(-c3cc(C(=O)NC(C)C)c4nc(N)nn4c3)cs2)c1 . Is its IC50 below 200 nM?
y

Is IC50 of Cc1ccc([C@H](C)NC(=O)c2cc(-c3ccc4nc(N)nn4c3)cs2)cc1 strictly below 200 nM?
n

Could you please tell me whether IC50 recorded for CC(NC(=O)c1cc(-c2csc(C(=O)NCc3ccc(F)cc3)c2)cn2nc(N)nc12)C(F)(F)F (stereo not drawn) is less than 200 nM?
y

Is IC50 of CC(C)C(NC(=O)c1cc(-c2ccc3nc(N)nn3c2)cs1)c1ccc(F)cc1 (stereo not drawn) strictly below 200 nM?
y
